- Test details: Phase 1 fixed-sequence drug-drug interaction study: plasma pharmacokinetics of single-dose fedratinib with and without fluconazole
- Format: in vivo, human
- Details: both sexes, human, plasma, po, 100 mg, fedratinib 100 mg single oral dose alone, n = 7; read-out: AUC0–∞, geometric mean (geometric CV%)
Observation type: AUC(0-inf) (ng·h/mL)
Only the number, expressed in ng·h/mL, is required.

May I ask what AUC(0-inf) has been recorded for Cc1cnc(Nc2ccc(OCCN3CCCC3)cc2)nc1Nc1cccc(S(=O)(=O)NC(C)(C)C)c1 ? 2360

----------
- Test details: Phase 1 fixed-sequence drug-drug interaction study: plasma pharmacokinetics of single-dose fedratinib with and without fluconazole
- Type: in vivo, human
- Details: both sexes, human, plasma, oral; fedratinib 100 mg + fluconazole 200 mg once daily, n = 16; read-out: t1/2 (terminal elimination), geometric mean (geometric CV%) (converted)
Observation type: half-life (h)
Only the number, expressed in h, is required.

May I ask what half-life has been recorded for Cc1cnc(Nc2ccc(OCCN3CCCC3)cc2)nc1Nc1cccc(S(=O)(=O)NC(C)(C)C)c1 ? 138

----------
- Test details: Phase 1 fixed-sequence drug-drug interaction study: plasma pharmacokinetics of single-dose fedratinib with and without fluconazole
- Assay type: in vivo, human
- Details: both sexes, human, plasma, oral; fedratinib 100 mg + fluconazole 200 mg once daily, n = 16; read-out: AUC0–t, geometric mean (geometric CV%)
Observation type: AUC(0-t)
Number first, unit second: that is the form wanted.

May I ask what AUC(0-t) has been recorded for Cc1cnc(Nc2ccc(OCCN3CCCC3)cc2)nc1Nc1cccc(S(=O)(=O)NC(C)(C)C)c1 ? 2970 ng·h/mL

----------
- Test details: Phase 1 fixed-sequence drug-drug interaction study: plasma pharmacokinetics of single-dose fedratinib with and without fluconazole
- Type: in vivo, human
- Details: both sexes, human, plasma, oral; 100 mg fedratinib (reference), n = 16; read-out: Cmax, geometric mean from ANOVA model
Observation type: Cmax (ng/mL)
Only the number, expressed in ng/mL, is required.

May I ask what Cmax has been recorded for Cc1cnc(Nc2ccc(OCCN3CCCC3)cc2)nc1Nc1cccc(S(=O)(=O)NC(C)(C)C)c1 ? 121

----------
- Test details: Phase 1 fixed-sequence drug-drug interaction study: plasma pharmacokinetics of single-dose fedratinib with and without fluconazole
- Assay type: in vivo, human
- Details: both sexes, human, plasma, oral, 100 mg, 100 mg fedratinib (reference), n = 7; read-out: AUC0–∞, geometric mean from ANOVA model
Observation type: AUC(0-inf) (ng·h/mL)
Only the number, expressed in ng·h/mL, is required.

May I ask what AUC(0-inf) has been recorded for Cc1cnc(Nc2ccc(OCCN3CCCC3)cc2)nc1Nc1cccc(S(=O)(=O)NC(C)(C)C)c1 [fedratinib] ? 2410

----------
- Test details: Phase 1 fixed-sequence drug-drug interaction study: plasma pharmacokinetics of single-dose fedratinib with and without fluconazole
- Format: in vivo, human
- Details: both sexes, human, plasma; fedratinib 100 mg single oral dose + fluconazole 200 mg once daily, healthy adults, n = 16; read-out: Cmax, geometric mean (geometric CV%)
- Protocol: This was an open-label Phase 1 study to evaluate the effect of multiple doses of fluconazole on the PK, safety, and tolerability of a single dose of fedratinib in healthy adult participants (NCT04702464). Healthy men and women aged 18–65 years with body mass index (BMI) ≥ 18 and ≤ 33 kg/m^2 at screening were enrolled at one site in the USA. […] Plasma PK parameters were calculated using noncompartmental methods. […]
Observation type: Cmax (ng/mL)
Only the number, expressed in ng/mL, is required.

May I ask what Cmax has been recorded for Cc1cnc(Nc2ccc(OCCN3CCCC3)cc2)nc1Nc1cccc(S(=O)(=O)NC(C)(C)C)c1 ? 146

----------
- Test details: Phase 1 fixed-sequence drug-drug interaction study: plasma pharmacokinetics of single-dose fedratinib with and without fluconazole
- Type: in vivo, human
- Details: both sexes, human, plasma, oral; fedratinib 100 mg + fluconazole 200 mg once daily, n = 5; read-out: Vz/F, geometric mean (geometric CV%)
- Description: This was an open-label Phase 1 study to evaluate the effect of multiple doses of fluconazole on the PK, safety, and tolerability of a single dose of fedratinib in healthy adult participants (NCT04702464). Healthy men and women aged 18–65 years with body mass index (BMI) ≥ 18 and ≤ 33 kg/m^2 at screening were enrolled at one site in the USA. […] Plasma PK parameters were calculated using noncompartmental methods. […]
Observation type: Vd/F (L)
Only the number, expressed in L, is required.

May I ask what Vd/F has been recorded for Cc1cnc(Nc2ccc(OCCN3CCCC3)cc2)nc1Nc1cccc(S(=O)(=O)NC(C)(C)C)c1 [fedratinib] ? 3560

----------
- Test details: Phase 1 fixed-sequence drug-drug interaction study: plasma pharmacokinetics of single-dose fedratinib with and without fluconazole
- Type: in vivo, human
- Details: both sexes, human, plasma, oral, 100 mg fedratinib + 200 mg fluconazole once daily (test), n = 5; read-out: AUC0–∞, geometric mean from ANOVA model
Observation type: AUC(0-inf) (ng·h/mL)
Only the number, expressed in ng·h/mL, is required.

May I ask what AUC(0-inf) has been recorded for Cc1cnc(Nc2ccc(OCCN3CCCC3)cc2)nc1Nc1cccc(S(=O)(=O)NC(C)(C)C)c1 [fedratinib] ? 4100
